test: viability loss in Ba/F3 EpoR-JAK2V617F cells – cell-based, luminescence, JAK2V617F inhibitor project, primary screen (AID 1446); settings: ATP luminescence, at 5.6 µM, stronger effect = higher value;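 further: cytokine-independent growth of Ba/F3 cells driven by EpoR plus mutant JAK2; 0% = DMSO-treated cells and 100% = JAK inhibitor I control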
Screen size: about 220,000 compounds; about 2,400 (1.1%) were called active. What follows is part of a selection rich in actives, with near analogues and random picks from the rest.
For each of the compounds below, state its inhibition.
Give bare numbers, in %.

# annotated cases, reported inhibition shown
Cc1ccc(CN(C)CC(=O)Nc2cccc([N+](=O)[O-])c2)o1 ... -2.99
Oc1ccc(N=Nc2nccs2)c(O)c1 ... 8.36
O=S(=O)(Nc1n[nH]c(C(F)(F)F)n1)c1ccccc1 ... -3.72
CCN(CCNC(=O)C1=C(C)C(=O)OC12CCC(C)CC2)c1ccccc1 (configuration not stated) ... -2
O=C(O)/C=C/c1ccc2c(c1)OCCO2 ... 0.26

Could you tell me inhibition for each of these compounds? They are listed below.
1. Cc1ccc(NC(=O)C(=O)NCc2ccco2)c(C)c1
2. CC1(C)C2CC=C(/C=N/NC(=O)C3CC3)C1C2 (configuration not stated)
3. CCCC(=O)Nc1nc2ccc(NC(=O)c3c(F)c(F)c(OC)c(F)c3F)cc2s1
4. CCC(C)C(=O)Nc1cc([N+](=O)[O-])ccc1Cl (configuration not stated)
5. CCC(=O)N1CCCc2ccccc21
6. CC1(C)C2CC=C(/C=N/NC(=O)c3ccc(Cl)cc3)C1C2 (configuration not stated)

Response:
-1.41
-1.08
81.8
-3.84
-4.91
-0.76

Give inhibition for all compounds that follow.
1. CCn1c2ccccc2c2cc(NC(=O)CNC)ccc21
2. Cc1cc(C)nc(SCC(=O)N(C)C)n1
3. N#Cc1ccc(OCc2nnc(-c3ccc([N+](=O)[O-])cc3)o2)cc1
4. COc1ccccc1NC1=NC2(CCCC2)N=C(N)N1

Response:
1. -0.79
2. -5.1
3. 1.03
4. 1.28

Dear reader, for each entry below, please note its inhibition.
1. COc1ccc(Cl)cc1C(=O)NCC#N
2. CCOC(=O)C1(S(=O)(=O)c2ccccc2)CCN(Cc2ccccc2)CC1
3. Cc1ccc(-c2cc(C(F)(F)F)n3ncc(C(=O)N4CCCCC4c4cccnc4)c3n2)cc1 (configuration not stated)
4. CC1=C/C(=N\S(=O)(=O)c2ccccc2)C(C(C)C)=CC1=O

Response:
[-0.27, 0.13, -1.34, -3.55]

Please report inhibition for every entry that follows.
1. COc1ccc2c(Cl)c(C(=O)NCc3ccco3)sc2c1
2. CCc1ccc(NC(=O)N2CCN(c3ccccc3)CC2)cc1
3. Oc1ccc2ccccc2c1C=Nc1ccccc1
4. CSCCC(NS(=O)(=O)c1ccc2c(c1)oc(=O)n2C)C(=O)NCc1ccccc1 (configuration not stated)
5. CC1=C/C(=N\OS(=O)(=O)c2ccccc2)C=CC1=O
6. CCc1nnc(NC(=O)CSc2nnnn2-c2cccc(C(C)=O)c2)s1
7. Cc1nc(C(=O)N2CCCC(C(=O)c3ccc(Cl)cc3)C2)cs1 (configuration not stated)

Response:
1: -3.38; 2: 0.49; 3: 0.08; 4: -3.72; 5: 40.6; 6: -3.92; 7: -2.53

###

experiment: viability loss in Ba/F3 EpoR-JAK2V617F cells – cell-based, luminescence, JAK2V617F inhibitor project, primary screen (AID 1446); details: ATP luminescence, at 5.6 µM, stronger effect = higher value
Among all 220,000 compounds or so, about 2,400 (1.1%) were called active. Many of the other results were omitted from the sample, so actives are more common in it than they were.
Record form. Attribute: inhibition. Fill in for each entry.
Answers are plain numbers, in %.

Worked examples, 5 compounds total:
COc1ccc(NC(=O)/C(Cl)=C(/Cl)S(=O)Cc2ccc(C)cc2)cn1 (stereo not drawn) ... 100
COc1ccc(Nc2cc(Cl)ccc2C(=O)O)cn1 ... -1.48
Cc1ccc(NC(=S)N(Cc2ccco2)C(C)c2cccs2)cc1 (stereo not drawn) ... 3.37
Nc1nnc(SCC(=O)OCc2ccc(Cl)c(Cl)c2)s1 ... 1.09
CCOC(=O)c1cc(-c2nnc(-c3cc(OC)c(OC)c(OC)c3)o2)c(C)nc1C ... 0.18

Give inhibition for each of the items listed below.
1. Cc1cc(C)nc(NS(=O)(=O)c2ccc(N/C=C\C(=O)c3cccs3)cc2)n1
2. CCOc1cc(/C=C2/C(=N)N3OC(C)=CC3=NC2=O)ccc1OC
3. CC(=O)Nc1ccc(C(=O)/C=C/c2ccc[nH]2)cc1

Response:
[2.57, 1.56, 0.42]

###

experiment: viability loss in Ba/F3 EpoR-JAK2V617F cells – cell-based, luminescence, JAK2V617F inhibitor project, primary screen (AID 1446); details: ATP luminescence, at 5.6 µM;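 further: cytokine-independent growth of Ba/F3 cells driven by EpoR plus mutant JAK2; 0% = DMSO-treated cells and 100% = JAK inhibitor I control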
The whole screen tested about 220,000 compounds, of which about 2,400 (1.1%) were called active.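 The calls were made as follows: active = inhibition above the campaign mean plus 3 SD over all tested compounds (cut at about 24% in these data); inactive = the rest.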 This is one part of a sample in which actives are shown more often than they occur.
Respond with a class label; see active, inactive

// below: answered compounds
COc1cc(/C=C2/C(=O)ON=C2C)ccc1OCc1ccccc1F ... inactive
Cc1ccc(S(=O)(=O)N(C)C2(C)CCS(=O)(=O)C2)cc1 (configuration not stated) ... inactive
COc1ccccc1-c1nc(C#N)c(N2CCC(C(N)=O)CC2)o1 ... inactive
Cc1cc(C)n(-c2cc(Oc3ccccc3)ncn2)n1 ... inactive
Oc1ccc(/C=N/Nc2ccc(C(F)(F)F)cn2)cc1O ... active
CC(=O)Nc1ccc(/C(C)=N/NC(=O)CN(c2ccccc2Br)S(C)(=O)=O)cc1 ... inactive

Prompt: # outcome recorded in this test, key = `CC(=O)NC(=S)Nc1ccc(NC(=S)NC(=O)c2ccc([N+](=O)[O-])cc2)cc1`
Response: inactive

Prompt: How about `COc1ccccc1N=Cc1c(O)c2ccccc2oc1=O` ?
Response: inactive

Prompt: Then `O=C(Cc1ccc2c(c1)CCCC2)Nc1ccccc1Cl` ?
Response: inactive

Prompt: Same thing, different compound: COc1ccc(/C=C/CN2CCCC(C(=O)c3cc(F)ccc3F)C2)cc1 (configuration not stated)
Response: inactive

Prompt: # repeat for `COc1ccc(CN(C)Cc2nc3cc(OC)c(OC)cc3c(=O)[nH]2)c(OC)c1`
Response: inactive

Prompt: Can you handle CSCC(=O)N1CCCC(C(=O)c2cc(F)ccc2F)C1 (configuration not stated) next?
Response: active

Prompt: Subsequent entry: `COc1ccc(C(=O)NNC(=S)NC(=O)c2ccccc2[N+](=O)[O-])cc1`
Response: inactive

###

assay: viability loss in Ba/F3 EpoR-JAK2V617F cells – cell-based, luminescence, JAK2V617F inhibitor project, primary screen (AID 1446); settings: ATP luminescence, at 5.6 µM;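 further: cytokine-independent growth of Ba/F3 cells driven by EpoR plus mutant JAK2; 0% = DMSO-treated cells and 100% = JAK inhibitor I control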
Among all 220,000 compounds or so, about 2,400 (1.1%) were called active.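 Rule for the calls: active = inhibition above the campaign mean plus 3 SD over all tested compounds (cut at about 24% in these data); inactive = the rest.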 Shown is part of a subset that was picked to be rich in actives.
Please answer using one outcome listed in TRUE = active, FALSE = inactive

Completed entries (count: 5):
Cc1[nH]n(C)c(=O)c1N=Nc1ccc(S(C)(=O)=O)cc1 ... FALSE
O=[N+]([O-])c1cccc(Nc2c3ccccc3nc3ccccc23)c1 ... FALSE
CC(=O)Nc1cccc(OCC(=O)/C=C2\N(C)c3ccccc3C2(C)C)c1 ... TRUE
CC(C)C(=O)Nc1oc(-c2ccccc2)cc1C#N ... FALSE
CN1/C(=C\C(=O)c2cccnc2Cl)C(C)(C)c2ccccc21 ... FALSE

Alright, here's another molecule for you.
Prompt: Short answer needed: outcome of this test for `CCOc1ccc(-n2c(O)c(/C=N/Nc3nnc(C)c(=O)[nH]3)c3ccccc3c2=O)cc1` ?
Response: FALSE

###

assay: viability loss in Ba/F3 EpoR-JAK2V617F cells – cell-based, luminescence, JAK2V617F inhibitor project, primary screen (AID 1446); conditions: ATP luminescence, at 5.6 µM, stronger effect = higher value;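 further: cytokine-independent growth of Ba/F3 cells driven by EpoR plus mutant JAK2; 0% = DMSO-treated cells and 100% = JAK inhibitor I control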
Hit rate of the full screen: of about 220,000 compounds, about 2,400 (1.1%) were called active. Only a selection was taken, and actives are over-represented in it overall.
Give inhibition for every item shown.
Give bare numbers, in %.

Use the examples below as a reference point.
CCCCCCc1cc2cc(-c3nnc(-c4cccc(OC)c4)o3)c(=O)oc2cc1O ... -1.07
Cc1onc(NC(=O)c2ccc([N+](=O)[O-])o2)c1Br ... 2.15
Cn1nc(C(F)(F)F)cc1-c1ccc(/C=C(\C#N)C(=O)c2cccc(C(F)(F)F)c2)s1 ... -2.61
COc1cc(OC)cc(C(=O)N[C@H](C(=O)Nc2nc3ccccc3[nH]2)C(C)C)c1 ... 76.2

Record inhibition for all entries; do not skip any.
1. CCCCOc1ccc(NC(=O)[C@@H]2CCCN2C(=O)C2CCN(S(=O)(=O)c3ccc(C)cc3)CC2)cc1
2. COc1ccc(OC(C)C(=O)NCCc2nc3ccccc3[nH]2)cc1 (configuration not stated)
3. CSc1sc(C(=O)NC(=O)NCc2cccnc2)c(C)c1-c1ccon1

Response:
1. 1.1
2. -2.24
3. -1.98
